assay target: M. tuberculosis ATP-PRT (Mycobacterium tuberculosis)
Sequence (P9WMN1 whole entry, looked up): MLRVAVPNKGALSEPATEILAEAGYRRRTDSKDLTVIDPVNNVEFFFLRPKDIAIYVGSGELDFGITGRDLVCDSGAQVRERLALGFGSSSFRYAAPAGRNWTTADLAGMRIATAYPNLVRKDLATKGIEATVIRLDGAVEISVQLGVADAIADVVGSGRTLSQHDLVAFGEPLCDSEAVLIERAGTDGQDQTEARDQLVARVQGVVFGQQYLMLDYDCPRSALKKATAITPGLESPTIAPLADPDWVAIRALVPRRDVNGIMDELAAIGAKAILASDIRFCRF
measurement description: biochemical
test settings: L-His inhibition vs ATP, [TIH] 0 mM; read-out: K i,ATP
observation type: Ki (µM)
Dear colleague, please return just the value in µM, with no unit written.

Entry N[C@@H](Cc1c[nH]cn1)C(=O)O [L-His, L-histidine, reference compound] , Ki reported as 20
